# study-target: Receptor tyrosine-protein kinase erbB-2 (Homo sapiens, UniProt P04626)
# Sequence (P04626 whole entry, the tested form may be a part): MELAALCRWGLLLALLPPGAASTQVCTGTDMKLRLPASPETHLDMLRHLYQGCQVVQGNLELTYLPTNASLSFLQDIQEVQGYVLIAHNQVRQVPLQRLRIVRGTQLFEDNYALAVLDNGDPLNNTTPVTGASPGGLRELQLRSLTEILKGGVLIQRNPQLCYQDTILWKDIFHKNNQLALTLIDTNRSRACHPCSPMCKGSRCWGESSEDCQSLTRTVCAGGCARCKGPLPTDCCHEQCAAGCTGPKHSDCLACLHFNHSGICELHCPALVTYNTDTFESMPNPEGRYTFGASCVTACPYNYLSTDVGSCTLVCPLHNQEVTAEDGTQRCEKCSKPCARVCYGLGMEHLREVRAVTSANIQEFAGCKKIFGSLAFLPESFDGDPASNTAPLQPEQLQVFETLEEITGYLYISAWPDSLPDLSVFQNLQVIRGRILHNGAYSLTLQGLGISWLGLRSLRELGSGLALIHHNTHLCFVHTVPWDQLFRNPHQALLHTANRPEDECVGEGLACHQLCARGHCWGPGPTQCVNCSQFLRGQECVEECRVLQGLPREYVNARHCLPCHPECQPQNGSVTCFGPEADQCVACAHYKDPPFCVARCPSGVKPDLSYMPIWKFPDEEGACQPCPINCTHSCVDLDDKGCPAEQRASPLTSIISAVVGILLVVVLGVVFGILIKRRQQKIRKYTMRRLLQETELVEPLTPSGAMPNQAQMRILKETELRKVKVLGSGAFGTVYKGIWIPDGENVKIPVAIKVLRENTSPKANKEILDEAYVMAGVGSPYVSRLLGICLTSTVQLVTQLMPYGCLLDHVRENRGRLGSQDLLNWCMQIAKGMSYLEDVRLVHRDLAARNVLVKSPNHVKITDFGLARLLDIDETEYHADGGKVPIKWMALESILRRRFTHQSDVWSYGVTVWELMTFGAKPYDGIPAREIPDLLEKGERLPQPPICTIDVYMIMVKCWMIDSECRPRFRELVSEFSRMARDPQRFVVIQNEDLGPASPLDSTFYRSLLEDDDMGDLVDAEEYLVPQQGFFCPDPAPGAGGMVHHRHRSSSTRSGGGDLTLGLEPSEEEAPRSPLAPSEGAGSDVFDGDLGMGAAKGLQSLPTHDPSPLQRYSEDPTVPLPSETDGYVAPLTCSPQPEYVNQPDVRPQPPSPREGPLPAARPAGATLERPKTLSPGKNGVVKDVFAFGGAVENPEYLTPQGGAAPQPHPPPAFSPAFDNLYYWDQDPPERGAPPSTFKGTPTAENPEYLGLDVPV
# assay-name: Inhibition of recombinant human […] ERBB2 cytoplasmic domain (676 to 1255 residues) expressed in baculovirus by Z'-LYTE assay
assay-metric: IC50 (nM)
Give bare numbers, in nM.

Supply IC50 value. Item: C=CC(=O)N1CCC[C@@H](n2nc(-c3ccc(OCc4ccccn4)c(Cl)c3)c3c(N)ncnc32)C1
8.1

---

# study-target: Epidermal growth factor receptor (Homo sapiens, UniProt P00533, L858R/T790M)
# Sequence (P00533 25-1210 T790M/L858R limits assumed): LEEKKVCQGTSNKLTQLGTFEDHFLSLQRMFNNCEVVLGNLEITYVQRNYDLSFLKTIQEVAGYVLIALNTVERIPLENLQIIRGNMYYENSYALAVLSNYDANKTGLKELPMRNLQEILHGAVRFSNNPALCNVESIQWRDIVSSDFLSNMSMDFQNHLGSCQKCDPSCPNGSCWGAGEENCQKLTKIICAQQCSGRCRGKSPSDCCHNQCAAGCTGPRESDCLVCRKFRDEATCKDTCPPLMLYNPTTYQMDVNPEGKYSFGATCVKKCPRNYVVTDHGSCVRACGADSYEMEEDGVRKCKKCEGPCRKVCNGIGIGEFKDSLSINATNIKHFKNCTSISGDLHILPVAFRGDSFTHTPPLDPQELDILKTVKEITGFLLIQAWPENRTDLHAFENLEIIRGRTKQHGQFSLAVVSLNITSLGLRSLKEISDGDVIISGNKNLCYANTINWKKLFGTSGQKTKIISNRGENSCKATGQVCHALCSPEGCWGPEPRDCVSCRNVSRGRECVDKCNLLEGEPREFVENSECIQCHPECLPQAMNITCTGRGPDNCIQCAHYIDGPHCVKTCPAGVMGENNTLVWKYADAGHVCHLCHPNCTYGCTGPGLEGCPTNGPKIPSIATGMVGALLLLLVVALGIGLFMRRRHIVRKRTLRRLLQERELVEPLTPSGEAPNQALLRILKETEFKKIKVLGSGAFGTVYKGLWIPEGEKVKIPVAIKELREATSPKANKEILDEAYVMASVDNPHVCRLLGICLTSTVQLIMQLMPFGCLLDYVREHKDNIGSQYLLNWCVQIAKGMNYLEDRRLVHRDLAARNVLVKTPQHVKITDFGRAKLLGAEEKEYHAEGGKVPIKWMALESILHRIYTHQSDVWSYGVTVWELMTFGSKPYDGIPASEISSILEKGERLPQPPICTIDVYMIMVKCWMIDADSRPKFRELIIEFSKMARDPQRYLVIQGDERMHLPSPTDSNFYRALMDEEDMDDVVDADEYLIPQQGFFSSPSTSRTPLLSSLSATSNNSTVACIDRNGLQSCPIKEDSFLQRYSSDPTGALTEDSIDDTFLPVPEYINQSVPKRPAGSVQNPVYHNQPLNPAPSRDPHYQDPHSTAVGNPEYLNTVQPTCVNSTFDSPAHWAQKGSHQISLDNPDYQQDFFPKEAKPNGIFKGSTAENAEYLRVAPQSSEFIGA
# assay-name: Inhibition of EGFR T790M/L858R mutant (unknown origin) autophosphorylation at Y1068 expressed in mouse BAF3 cells after 4 hrs by Western blot analysis
# Type: cell-based
assay-metric: pEC50
Numbers only, as −log10 of the molar value.

Supply pEC50 value. Item: C=CC(=O)N1CCC[C@@H](n2nc(-c3ccc(OCc4ccccn4)c(Cl)c3)c3c(N)ncnc32)C1
8.15
